The reported measurements were obtained from patent US20220112288A1.

Below, each entry is listed with its recorded PBMCs, anti-mFc 647 CD4+ Percent Bound of Viable.
measuredOn: T1, human CD4 on cells (SKW3 cells; human PBMCs) (human, UniProt P01730 26-458)
T1 construct: whole, on cells; SKW3 CD4 knockout cells served as the negative cell line; also called hCD4
experimentalDetails: FACS confirmation, supernatant on human PBMCs, anti-mouse Fc 647, CD4+ percent of viable cells
The reply should be a number in %, with the unit left off.

>>> recordednumber("75110_01K10A (antibody, V domains shown, Tested as non-clonal AlivaMab Mouse Kappa hybridoma supernatant: human variable domains and human kappa, mouse Fc) VH: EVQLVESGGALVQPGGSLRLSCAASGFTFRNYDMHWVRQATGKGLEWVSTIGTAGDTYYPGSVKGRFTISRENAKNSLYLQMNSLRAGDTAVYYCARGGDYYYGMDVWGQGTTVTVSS VL: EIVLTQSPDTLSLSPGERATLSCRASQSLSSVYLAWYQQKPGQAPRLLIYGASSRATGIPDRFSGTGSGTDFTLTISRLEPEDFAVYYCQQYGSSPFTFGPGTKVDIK")
30

Next binder, please.
Inquiry: Could you tell me which PBMCs, anti-mFc 647 CD4+ Percent Bound of Viable is on file for 75110_05K11A (antibody, IgG1, V domains shown, Tested as non-clonal AlivaMab Mouse Kappa hybridoma supernatant: human variable domains and human kappa, mouse Fc) VH: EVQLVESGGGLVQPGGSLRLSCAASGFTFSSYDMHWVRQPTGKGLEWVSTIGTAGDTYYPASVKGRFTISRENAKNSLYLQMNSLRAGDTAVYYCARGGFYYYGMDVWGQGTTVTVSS VL: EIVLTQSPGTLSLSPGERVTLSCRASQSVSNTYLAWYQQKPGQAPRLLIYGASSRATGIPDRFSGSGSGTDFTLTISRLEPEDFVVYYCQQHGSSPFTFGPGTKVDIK ?
Reply text: 31
